Lab note: GI50 readings collected with NCI-H460 lung for the following molecules.
Result Type: GI50

• N#Cc1cccc(OCc2nc(N)nc(N)c2-c2ccc(Cl)c(Cl)c2)c1 = 435 nM
• Cc1cc(NCCCNc2ccnc3cc(Cl)ccc23)nc(N2CCN(C)CC2)n1 = 2660 nM
• O=c1c2ccccc2c(Br)c(Br)c2ccccc12 = 14500 nM
• Oc1ccc(CN2CCC(N3CCOCC3)CC2)c2cccnc12 = 46900 nM
• COc1cc2c3c(n(CCCN(CCN)CCCn4c5c(c6cc(OC)c(OC)cc6c4=O)C(=O)c4cc6c(cc4-5)OCO6)c(=O)c2cc1OC)-c1cc2c(cc1C3=O)OCO2 = 469 nM
• COC(=O)C1=C(C)NC(C)=C(C(=O)OC)C1/C=C(\Cl)c1ccc(Cl)c(Cl)c1 = 6480 nM
• O=S(=O)(Cc1ccc(Cl)cc1Cl)c1ccc(Cl)cc1 = 401 nM
• O=C1CC(c2cccc(O)c2)C2(C(=O)NC(=S)NC2=O)C(c2cccc(O)c2)C1 (stereo unspecified) = > 100000 nM
• Cn1cc(C2=C(c3cn(CCO)c4ccccc34)C(=O)NC2=O)c2ccccc21 = 2060 nM
• COc1cc(-n2cc(-c3ccc(F)cc3)nc2SCc2ccccc2)cc(OC)c1OC = 77200 nM
• CC(C)(O)C#Cc1ccc(/C=C/C(=O)c2ccccc2)s1 = 17300 nM
• CCN1/C(=C/C=C/c2n(-c3ccccc3)c3ccc(-c4nc5ccccc5s4)cc3[n+]2CC)N(c2ccccc2)c2ccc(-c3nc4ccccc4s3)cc21 = 527 nM
• O=C1C2C(C(=O)[N]1[Hg][c]1cccs1)C1(Cl)C(Cl)=C(Cl)C2(Cl)C1(Cl)Cl (stereo unspecified) = 3040 nM
• S=C(N/N=C(/c1ccccc1)c1ccccn1)N1CCCCC1 = 1.49 nM
• COc1cc2c(cc1OCCCCCOc1cc3c(cc1OC)C(=O)N1CC(F)C[C@H]1C=N3)N=C[C@@H]1CC(F)CN1C2=O (stereo partly specified) = < 10 nM
• C#CCN(Cc1nc2cc(C(F)(F)F)ccc2nc1-c1ccccc1)c1ccc(OC(F)(F)F)cc1 = 38000 nM

* * *

Recorded TGI for the following molecules
Tested on: SK-OV-3 ovarian
Protocol Summary: NCI tumour cell line growth inhibition, 48 h
Result Type: TGI

• O=S(=O)(O)CCCC1S(=O)(=O)OCCOS1(=O)=O = > 100 µM
• COc1cc(/C=C2/SC(c3ccccc3)N(c3cccc(Cl)c3)C2=O)cc(OC)c1OC (stereo unspecified) = > 100 µM
• COC(=O)C1CCC(Nc2ccc(C)cc2C)=N1 (stereo unspecified) = > 100 µM
• CN(C)c1nc(N(C)C)nc(N(C)CN(C)c2ccc(Cl)cc2)n1 = > 100 µM
• C/C=C1/CN2CCc3c([nH]c4ccccc34)[C@@H]2C[C@@H]1Cc1[nH]ccc2c1[nH]c1cc(=O)ccc12 = 4.4 µM
• COc1cc(C(=O)N2N=C(c3ccc(S(C)(=O)=O)cc3)CC2c2ccco2)cc(OC)c1OC (stereo unspecified) = > 100 µM
• CCOCN1COCN=C1NC#N = > 100 µM
• COCO[C@@H]1C[C@H]2C(=O)N(COC)c3ccccc3C(=O)N2C1 = > 100 µM
• CCCCCCCCCCCCCCCc1ccc(OCC(O)CO)cc1 (stereo unspecified) = > 100 µM
• CC(C)(C)n1c(=O)[nH]n(C2NN=Cc3cccc4cccc2c34)c1=O (stereo unspecified) = > 100 µM
• c1ccc2c(c1)Nc1ccccc1[P+]21c2ccccc2Nc2ccccc21 = 0.869 µM
• CCOC(=O)/C(=N\OC)C(O)C(F)(F)F (stereo unspecified) = > 100 µM
• Nc1cc2c(nnn2C2OC(COCc3ccccc3)C(OCc3ccccc3)C2OCc2ccccc2)c(=O)[nH]1 (stereo unspecified) = > 100 µM
• Cc1ccc(NP(=O)(Oc2ccccc2)N(CCCl)CCCl)cc1 (stereo unspecified) = > 100 µM
• c1ccc2c(c1)sc1c3cnccc3ccc21 = > 100 µM
• S=c1nc(Cc2ccc(Cl)cc2)[nH][nH]1 = > 100 µM
• Cc1cc(Cl)cc2c(N=Nc3ccccc3[N+](=O)[O-])c(O)[nH]c12 = > 100 µM
• [Cl][Sn]([Cl])([c]1ccccc1)[c]1ccccc1 = 31.6 µM
• COC(=O)[C@H](Cc1ccccc1)NC(=O)N1CCCN(C(=O)N[C@@H](Cc2ccccc2)C(=O)OC)CCCN(C(=O)N[C@@H](Cc2ccccc2)C(=O)OC)CCC1 = 73.9 µM
• Cc1ccc(NC(=O)Cc2ccc(/C=C/C(=O)c3ncc[nH]3)cc2)cc1 = > 25 µM
• Nc1ncnc2c1ncn2Cc1ccc(C23CC4CC(CC(C4)C2)C3)c(OCc2cc(F)c(F)cc2F)c1 = > 100 µM
